readout_type: melting point

Record request: melting point value, item C1=C(c2c[nH]c3ccccc23)CCN(CC2COc3ccc4ncncc4c3O2)C1 (stereo not shown) (hydrate or solvate)
204 to 207 °C

// same read-out, input: Fc1ccc2[nH]cc(C3=CCN(CC4COc5ccc6ncncc6c5O4)CC3)c2c1 (stereo not shown) (hydrate or solvate)
233 to 235 °C

// same read-out, input: CCc1ncc2c3c(ccc2n1)OCC(CN1CC=C(c2c[nH]c4ccccc24)CC1)O3 (stereo not shown)
203 to 211 °C

// same read-out, input: Cc1ncc2c3c(ccc2n1)OCC(CN1CC=C(c2c[nH]c4ccccc24)CC1)O3 (stereo not shown) (hydrate or solvate)
198 to 202 °C
